experiment: Human liver microsome stability test; format: in vitro ADME; conditions: human, human liver microsomes
half-life at 1 µM values for the compounds below.
Enter the number, and then the unit.

Consider the following illustrative entries.
>  <given_smiles>
C[C@H](Cc1cnn[nH]1)OCC(=O)N1Cc2cnc(NC3Cc4ccccc4C3)nc2C1

>  <half-life at 1 µM>
53.6 min

$$$$
>  <given_smiles>
C[C@@H](OCCc1c[nH]nn1)C(=O)N1Cc2cnc(NC3Cc4ccccc4C3)nc2C1

>  <half-life at 1 µM>
123 min

$$$$

Bench note: what half-life at 1 µM did C[C@@H](Cc1cnn[nH]1)OCC(=O)N1Cc2cnc(NC3Cc4ccccc4C3)nc2C1 show? 26.6 min

All figures here come from patent US12221449B2.
